Source listed as the supplement of paper PMC11451515.

Exercise: for every item that follows, state its recorded cell viability.
# System: NOMO1
# protocol summary: cell viability relative to DMSO control; higher = less cytotoxic
# stated conditions: RPMI 5 mM glucose + 10% FBS; 48 h; 0.00234 µM
One number for each entry, in %.

Answered cases to consult:
| compound | cell viability (%) |
| --- | --- |
| CNC(=O)Nc1ccc(-c2nc(N3CC4CCC(C3)O4)c3cnn(C4CCC5(CC4)OCCO5)c3n2)cc1 | 115 |
| CNC(=O)[C@H](CC/1=C/N=C\2/C=C\C\C=C12)NC(=O)[C@H](CC(C)C)CC(=O)NO | 109 |
| CON(C)C(=O)N1/N=C(S[C@@]1(CCCN)C2=CC=CC=C2)/C3=CC(=CC=C3F)F | 114 |
| OC[C@H]1O[C@@H]2[C@@H](OC\3=N\C(=N)\C=C/[N@@]23)[C@@H]1O | 122 |
| CC(O)C1C2C(C)\C(=C(/N2C1=O)C(O)=O)SC3CNC(C3)C(=O)N(C)C (centres undefined) | 84.1 |

Could you report cell viability for every entry in the following list?
1. COc1cc(N2CCC(N(C)C)CC2)ccc1Nc1ncc(Cl)c(Nc2ccccc2P(C)(C)=O)n1
2. CCOc1ccc(Cc2cc([C@@H]3O[C@H](CO)[C@@H](O)[C@H](O)[C@H]3O)ccc2Cl)cc1
3. Cn1cc(C[C@@H](N)C(=O)O)c2ccccc21

Result:
1: 116; 2: 133; 3: 90.7

Problem: Short answer please: cell viability, NOMO1, entry Cc1noc(-c2ccc(CSCCC(=O)O)cc2)c1NC(=O)OC(C)c1ccccc1Cl (centres undefined)
Result: 97.5
